Origin of measurements: paper PMC12040169

methodSummary: in vitro
details: human, hela cells, % viability
experimentalEndpoint: viability at 28.5 h, 10 µM (%)
Just the number please, in %, no unit attached.

Supply reported viability at 28.5 h, 10 µM belonging to this compound: "Cc1ccc(S(=O)(=O)Nc2sccc2C(=O)Nc2ccc(F)cc2)cc1"
98.5

Consider the compound "CN(C)S(=O)(=O)Nc1ccc(Cc2ccncc2)cc1" and give its recorded viability at 28.5 h, 10 µM.
115

Give the measured viability at 28.5 h, 10 µM for "Fc1cc(Br)ccc1-c1cnn(-c2ccccc2)n1"
103

Specify reported viability at 28.5 h, 10 µM for the compound shown: CC(NC(=O)C1CCN(CCN2C(=O)c3ccccc3C2=O)CC1)c1ccc(F)cc1 (stereo not drawn)
107

Identify the reported viability at 28.5 h, 10 µM for the following entry. "CC(C)CNc1nc(-c2cccnc2)cnc1N"
99.5

Please report the measured viability at 28.5 h, 10 µM for "COc1ccc2c(c1)c(CN1CCCN(S(=O)(=O)c3ccc(-c4ccccc4)cc3)CC1)cn2C"
104

Read the entry "O=C(COc1ccc(S(=O)(=O)NC2CCCCC2)cc1Cl)Nc1ccc2c(c1)OCO2" and write its reported viability at 28.5 h, 10 µM.
90.5

Consider the compound "CC(C)(C)C(=O)CSc1nnc(-c2ccccn2)s1" . State its measured viability at 28.5 h, 10 µM.
91.9

Give me measured viability at 28.5 h, 10 µM, please, for this compound: "O=C(c1cncnc1)N1CCN(c2ncccn2)CC1"
88
